TARGET_SYSTEM: D(2) dopamine receptor (Homo sapiens)
Sequence (P14416 whole entry): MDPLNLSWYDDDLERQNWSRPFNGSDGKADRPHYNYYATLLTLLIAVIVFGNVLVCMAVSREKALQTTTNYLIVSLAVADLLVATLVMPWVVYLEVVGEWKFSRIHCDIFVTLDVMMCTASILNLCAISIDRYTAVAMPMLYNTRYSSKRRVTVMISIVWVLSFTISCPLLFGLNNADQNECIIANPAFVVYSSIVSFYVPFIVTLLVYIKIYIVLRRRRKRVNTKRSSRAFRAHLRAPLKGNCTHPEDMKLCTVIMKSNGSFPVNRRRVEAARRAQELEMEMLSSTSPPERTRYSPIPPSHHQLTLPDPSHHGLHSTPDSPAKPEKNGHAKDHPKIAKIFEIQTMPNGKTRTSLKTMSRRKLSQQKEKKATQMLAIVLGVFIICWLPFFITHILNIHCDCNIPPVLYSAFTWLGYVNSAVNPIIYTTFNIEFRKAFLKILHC
PROTOCOL_SUMMARY: Antagonist activity at dopamine D2 receptor (unknown origin) transfected in CHO cell membranes assessed as inhibition of forskolin-stimulated cAMP level after 10 mins by flash plate assay in presence of dopamine
# satisfied = IC50 below 200 nM (exclusive); not satisfied = IC50 at/above 200 nM

# QUERY_SMILES, LABEL_CLASS
measured = [
    ("Cc1cc2c(cc1O)[C@H]1C[C@](O)(c3ccc(Cl)cc3)CCN1CC2", "satisfied"),
    ("COc1cc2c(cc1O)[C@H]1C[C@@](O)(c3ccc(OC(F)(F)F)cc3)CCN1CC2", "satisfied"),
    ("COc1ccc2c(c1)CCN1CC[C@](O)(c3ccc(Cl)cc3)C[C@H]21", "not satisfied"),
    ("COc1cc2c(cc1O)[C@H]1C[C@](O)(c3ccc(Cl)cc3)CCN1CC2", "not satisfied"),
    ("Cc1cc2c(cc1O)[C@H]1C[C@@](O)(c3ccc(Cl)cc3)CCN1CC2", "not satisfied"),
]
